target: α2A adrenergic receptor (Homo sapiens); construct: Eurofins Cerep (contract screening); test: Radioligand binding assay (Eurofins Cerep), [3H]RX 821002 displacement; details: Alpha2A Ki ± SEM (nM), Table B1; mean ± SEM, 3 independent experiments
Sequence (P08913 whole entry): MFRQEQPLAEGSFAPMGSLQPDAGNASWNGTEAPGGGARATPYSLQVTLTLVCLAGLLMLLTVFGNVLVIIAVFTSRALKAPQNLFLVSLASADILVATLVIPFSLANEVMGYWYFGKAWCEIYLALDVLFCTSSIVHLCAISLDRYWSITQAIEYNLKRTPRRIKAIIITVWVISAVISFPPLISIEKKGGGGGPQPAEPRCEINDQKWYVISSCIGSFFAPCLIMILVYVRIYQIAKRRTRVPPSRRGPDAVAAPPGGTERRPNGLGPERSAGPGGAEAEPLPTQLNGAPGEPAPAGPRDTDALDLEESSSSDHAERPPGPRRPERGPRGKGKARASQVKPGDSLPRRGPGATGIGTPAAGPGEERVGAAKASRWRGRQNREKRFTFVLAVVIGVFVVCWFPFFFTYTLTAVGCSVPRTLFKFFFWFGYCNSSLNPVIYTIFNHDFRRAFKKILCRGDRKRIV
Field: label. Allowed values: Criterion met (Ki < 1000 nM) or Criterion not met (Ki >= 1000 nM).

// query Lab log: compare recorded Ki with 1000 nM; is it strictly lower for COC(=O)CC1CCN2CCC(O)(c3ccccc3OC)CC2C1 (centres unmarked) ?
// result Criterion met

// query Quick check: Ki of COC(=O)C=C1CCN2CCC(O)(c3ccccc3OC)CC2C1 (centres unmarked) [SG-01-005] under 1000 nM?
// result Criterion met

// query Bench note: check whether "C#CCCN1CCC(O)(c2ccccc2OC)CC1" shows Ki below 1000 nM
// result Criterion not met

// query Does this compound meet the criterion Ki < 1000 nM? COC(=O)C=C1CCN2CCC(O)(c3ccccc3OC)CC2C1 (single isomer, unassigned) [SG-01-005B]
// result Criterion met

----------
molecular target: hKOR (Homo sapiens); assay: Radioligand binding assay (Eurofins Cerep), [3H]U69,593 displacement; settings: Table A1, data summary #1; read-out: KOR Ki ± SEM
Sequence (P41145 whole entry): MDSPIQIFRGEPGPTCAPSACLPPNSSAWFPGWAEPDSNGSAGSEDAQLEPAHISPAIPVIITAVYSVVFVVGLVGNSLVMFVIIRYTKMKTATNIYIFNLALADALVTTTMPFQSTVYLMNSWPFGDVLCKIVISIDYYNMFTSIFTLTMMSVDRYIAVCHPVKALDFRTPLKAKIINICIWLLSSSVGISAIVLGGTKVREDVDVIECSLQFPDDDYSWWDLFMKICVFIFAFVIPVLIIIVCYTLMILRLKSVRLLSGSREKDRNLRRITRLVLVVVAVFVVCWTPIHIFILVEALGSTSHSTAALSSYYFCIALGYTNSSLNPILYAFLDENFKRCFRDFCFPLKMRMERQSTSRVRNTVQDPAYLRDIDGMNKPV
I'd be grateful if you could share measured Ki for these entries.
Number only, in µM; omit the unit.

Record "CC[C@@H]1CN2CCc3c([nH]c4cccc(OC)c34)[C@@H]2C[C@@H]1/C(=C\OC)C(=O)N(C)CC" has hKOR (Homo sapiens) Ki equal to 4.78

So the reported Ki for "CC[C@@H]1CN2CCc3c([nH]c4cccc(OC)c34)[C@@H]2C[C@@H]1/C(=C\OC)C(=O)NC1CCCC1" , on hKOR (Homo sapiens), turned out to be 5.85

Item "CC[C@@H]1CN2CC[C@@]3(O)C(=Nc4cccc(OC)c43)[C@@H]2C[C@@H]1/C(=C\OC)C(=O)N(C)C" was tested on hKOR (Homo sapiens); the reported Ki is 9.15

"CC[C@@H]1CN2CCc3c([nH]c4cccc(OC)c34)[C@@H]2C[C@@H]1/C(=C\OC)C(=O)N(C)C1CCCC1" tested on hKOR (Homo sapiens) gave Ki: 4.6

Test item "CC[C@@H]1CN2CCc3c([nH]c4cccc(OC)c34)[C@@H]2C[C@@H]1/C(=C\OC)C(=O)N(C)C1CCCCC1" ; hKOR (Homo sapiens); reported Ki was 2.64

----------
Assignment: determine reported pKi for the given compounds.
molecular target: hDOR (Homo sapiens, UniProt P41143); test: Radioligand binding assay (Eurofins Cerep), [3H]DADLE displacement; conditions: Table A1, data summary #1; read-out: DOR Ki ± SEM
Sequence (P41143 whole entry): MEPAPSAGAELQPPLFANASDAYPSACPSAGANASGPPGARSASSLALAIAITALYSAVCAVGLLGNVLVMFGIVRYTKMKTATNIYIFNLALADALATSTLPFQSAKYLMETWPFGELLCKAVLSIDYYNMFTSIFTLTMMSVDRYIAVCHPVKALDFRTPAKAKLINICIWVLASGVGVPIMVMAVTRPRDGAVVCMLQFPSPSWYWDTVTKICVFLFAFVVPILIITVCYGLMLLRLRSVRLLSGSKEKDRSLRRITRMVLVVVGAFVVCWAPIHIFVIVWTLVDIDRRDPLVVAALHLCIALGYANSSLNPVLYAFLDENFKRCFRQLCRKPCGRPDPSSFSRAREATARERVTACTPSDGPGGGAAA
pKi: −log10 of the molar value.

For "CC[C@@H]1CN2CCc3c([nH]c4cccc(OC)c34)[C@@H]2C[C@@H]1/C(=C\OC)C(=O)NC" the compound record lists pKi as < 5.00

What the record says about "CC[C@@H]1CN2CCc3c([nH]c4cccc(OC)c34)[C@@H]2C[C@@H]1/C(=C\OC)C(=O)NC1CCCC1" : pKi is < 5.00

Measured pKi of CC[C@@H]1CN2CC[C@]3(Nc4cccc(OC)c4C3=O)[C@@H]2C[C@@H]1/C(=C\OC)C(=O)OC [Mitragynine pseudoindoxyl, reference compound] : 8.53

Item: CC[C@@H]1CN2CCc3c([nH]c4cccc(OC)c34)[C@@H]2C[C@@H]1/C(=C\OC)C(=O)OC [Mitragynine, mitragynine, reference compound] | pKi: 5.17

Summary for this compound, "CC[C@@H]1CN2CCc3c([nH]c4cccc(OC)c34)[C@@H]2C[C@@H]1/C(=C\OC)C(=O)N1CCCC1" : pKi is < 5.00

# compound "CC[C@@H]1CN2CCc3c([nH]c4cccc(OC)c34)[C@@H]2C[C@@H]1/C(=C\OC)C(=O)N(CC)CC" ; its pKi = < 5.00
